System: SN12C renal
measurement protocol: NCI-60 one-dose screen, 48 h (100 = growth as untreated, 0 = no growth, -100 = all killed)
run conditions: 10 µM unless noted
Compounds without any hit were thinned out: in the full panel of roughly 83,000, 20% have a hit.
quantity kind: growth (%)
Quick note: give the figure in %, leave out the unit.

QUERY: Given the molecule "CC(C)(C)CC(C)(C)Nc1c(-c2c(O)c3ccccc3oc2=O)nc2c(Cl)cc(C(F)(F)F)cn12" , what is its reported growth?
RESULT: 91.6

QUERY: What measured growth goes with "Cc1cc2c(F)c(Oc3ncnn4cc(OC[C@@H](C)OC(=O)[C@H](C)N)c(C)c34)ccc2[nH]1" ?
RESULT: 55.6

QUERY: Please look up its growth: "Cn1cnc2c(F)c(Nc3ccc(Br)cc3F)c(C(=O)NOCCO)cc21"
RESULT: 56.2

QUERY: Bench note: what growth did "CC/C(=C(/c1ccc(Cl)cc1)c1ccc(OCCN2CCCCC2)cc1)c1ccc(Cl)cc1" show?
RESULT: 76.5

QUERY: Find the recorded growth belonging to "CN[C@@H]1C[C@H]2O[C@@](C)([C@@H]1OC)n1c3ccccc3c3c4c(c5c6ccccc6n2c5c31)C(=O)N[C@H]4O" and report it.
RESULT: -38.7

QUERY: Look up growth: Nc1cc2c(cc1Br)-c1c(C(=O)O)cccc1C2O (centres undefined)
RESULT: 109

QUERY: What does the record list as growth for "C/C(=C(/c1ccc(Cl)cc1)c1ccc(OCCN2CCCCC2)cc1)c1ccccc1" ?
RESULT: 77

QUERY: I am curious: what growth value has been reported for "O=C(Nc1cccc([N+](=O)[O-])c1)c1ccc(Cl)c(Cl)c1" ?
RESULT: 67.9

QUERY: Reported growth for "CNC(=O)c1c(C)oc2cc(Oc3ncnc4cc(OC)c(OC)cc34)ccc12" : what is it?
RESULT: 107

QUERY: I'd like to know its growth. The molecule in question is "CNc1ncc2cc(-c3cc(NC(=O)NCCC(C)(C)C)c(F)cc3C)c(C)nc2n1"
RESULT: 18.6

QUERY: Form field: reported growth of "CC(C)c1ccc(/C=N/Nc2nc3ccccc3s2)cc1"
RESULT: 86.3

QUERY: Value lookup for growth; key = "CN(C[C@@H]1COCCO1)S(=O)(=O)Nc1ccc2ccc3ncc(-c4cnn(C)c4)cc3c(=O)c2c1"
RESULT: 38.9

QUERY: # query: growth of entry "N#Cc1cc2[nH]c3ccc(OC(F)(F)F)cc3c2oc1=O"
RESULT: 95.9

QUERY: Which measured growth value corresponds to "C=C1C(=O)O[C@H]2[C@H]1CC/C(CNC(=O)c1cc3cc(OC)ccc3[nH]1)=C\CC[C@@]1(C)O[C@@H]21" ?
RESULT: -38.5

QUERY: Endpoint output: growth of "COc1cc(-c2cc(-c3ccc(Nc4ccnc5cc(Cl)ccc45)cc3)nc(N3CCOCC3)n2)cc(OC)c1OC" . Value?
RESULT: -11.9

QUERY: Looking for the measured growth of "O=C(NOC[C@H](O)CO)c1ccc(F)c(F)c1Nc1ccc(I)cc1F" , can you help?
RESULT: 49.5

QUERY: Give its growth value. Item: Cc1ccsc1C(NC(=O)c1ccccc1)c1cc(Cl)c2cccnc2c1O (centres undefined)
RESULT: 23.2

QUERY: I would be grateful if you could share the reported growth for "O=C1CCC(=O)CC1" .
RESULT: 90

QUERY: Requested field: growth. Item: COC(=O)[C@H](C)NC(=O)[C@@H](OC)[C@@H]1Cc2cc3cc(OC4CC(OC5CC(O)C(O)C(C)O5)C(O)C(C)O4)c(C)c(O)c3c(O)c2C(=O)[C@H]1OC1CC(OC2CC(OC3CC(C)(O)C(O)C(C)O3)C(O)C(C)O2)C(O)C(C)O1 (some centres undefined)
RESULT: 11.5

----------
System: SR leukemia
measurement protocol: NCI-60 one-dose screen, 48 h (100 = growth as untreated, 0 = no growth, -100 = all killed)
run conditions: 10 µM unless noted
This is part of a sample that, as a whole, favours compounds with a hit. Of some 83,000 tested, about 20% had one in any assay.
quantity kind: growth (%)
Value expressed in %; do not type the unit.

QUERY: Need growth of "CCCS(=O)(=O)Nc1ccc(F)c(C(=O)c2c[nH]c3ncc(-c4ccc(Cl)cc4)cc23)c1F" , thanks.
RESULT: 15.3

QUERY: Given the compound "COc1cc2nccc(Oc3ccc(NC(=O)C4(C(=O)Nc5ccc(F)cc5)CC4)cc3)c2cc1OC" , what is its reported growth?
RESULT: 0.0186

QUERY: Any idea what its growth is? The compound is "CCc1nc2cc(/C=C/C(=O)NO)ccc2c(=O)n1CCc1ccc(OC)cc1"
RESULT: 14.3

QUERY: Dear colleague, I am looking for the recorded growth of the following compound: "Cn1ncc(Cl)c1-c1cc(C(=O)N[C@H](CN)Cc2cccc(F)c2)sc1Cl"
RESULT: -29.6

QUERY: What does the data say about its growth? Entry: "O=C1/C(=C\c2cccc(OCCCCCOc3ccc(Cl)cc3)c2)N=C2SCCCN12"
RESULT: 92.1

QUERY: What does the data say about its growth? Entry: "Cc1cc(C(=O)NOCCO)c(Nc2ccc(I)cc2F)n(C)c1=O"
RESULT: 71.3

QUERY: // growth lookup, key: "CCN(CC)CCOc1ccc(/C(=C(\C)c2ccc(Cl)cc2)c2ccc(Cl)cc2)cc1"
RESULT: 0.594

QUERY: State the recorded growth for this entry: "C=CCN(/C=C1/C(=O)O[C@H](COC)[C@@]2(C)C1=C(O)C(=O)C1=C2[C@H](OC(C)=O)C[C@]2(C)C(=O)CC[C@@H]12)CC=C"
RESULT: 0.113

QUERY: Given the entry N#CC1(C#N)C(c2cccs2)NC(c2cccs2)C1(C#N)C#N (centres undefined) , report its measured growth.
RESULT: 110

----------
Kindly supply the reported growth values for the records listed here.
Test system: NCI-H226 lung
measurement protocol: NCI-60 one-dose screen, 48 h (100 = growth as untreated, 0 = no growth, -100 = all killed)
run conditions: 10 µM unless noted
About 83,000 compounds went through this panel and 20% of them were active in at least one assay; those are over-represented in the sample as a whole.
Answer in %, number only, no unit symbol.

QUERY: Could you tell me which growth is on file for "COc1cc(NCCN(CC(C)C)CC(C)C)c2ncc(C)cc2c1" ?
RESULT: 90.5

QUERY: // returns reported growth for input "COc1ccc(-c2nocc2-c2cc(OC)c(OC)c(OC)c2)cc1"
RESULT: 58.8

QUERY: Which measured growth value corresponds to "C[C@@H](Oc1cc(-n2cnc3ccc(CN4CCN(C)CC4)cc32)sc1C(N)=O)c1ccccc1C(F)(F)F" ?
RESULT: 69.3

QUERY: Field request: growth | item: "Cn1cnc2c(F)c(Nc3ccc(Br)cc3F)c(C(=O)NOCCO)cc21"
RESULT: 56.6

QUERY: Looking for the measured growth of "CCCCCC(=O)OCc1ccc(Cl)c(Cl)c1" , can you help?
RESULT: 100

QUERY: So what does the record say about growth for CC(C)(C)OC(=O)N1CCC(O)[C@@H](O[Si](c2ccccc2)(c2ccccc2)C(C)(C)C)[C@H]1/C=C/c1ccccc1 (some centres undefined) ?
RESULT: 47.9

QUERY: Return reported growth; argument: "C[C@@H](Nc1cc(F)cc(F)c1)c1cc(C(=O)N(C)C)cc2c(=O)cc(N3CCOCC3)oc12"
RESULT: 83.7

QUERY: Quick one: growth of CC(C)=CCc1cc2c(cc1O)C1=C(C(=O)C3=C(NCCS3(=O)=O)C1=O)C(C=C(C)C)O2 (centres undefined) ?
RESULT: 57.9

QUERY: For the compound shown here, "COc1cnc2c(c1)C(=O)c1c-2n(CCCN2CCC(O)CC2)c(=O)c2cc(Cl)ccc12" , give the reported growth.
RESULT: 39.3

QUERY: Look at this compound and give its reported growth. "Nc1c(C(=O)c2ccccc2)sc2nc(-c3cccs3)ccc12"
RESULT: 63.5

QUERY: Tell me the measured growth of "Cc1[nH]c(/C=C2\C(=O)Nc3ccc(F)cc32)c(C)c1C(=O)NC[C@H](O)CN1CCOCC1" , please.
RESULT: 47.8

QUERY: # get_value(readout='growth', item= "COC(=O)CCCNc1c(-c2c(O)c(O)cc3c(O)c(-c4c(C)cc5c(-c6nc7ccccn7c6NCCCC(=O)OC)c(O)c(O)cc5c4O)c(C)cc23)nc2ccccn12" )
RESULT: 64.8

QUERY: Which growth value is on record for "NC1(c2ccc(-c3nc4ccn5c(=O)[nH]nc5c4cc3-c3ccccc3)cc2)CCC1" ?
RESULT: 67.7

QUERY: Entry CC1CCC(n2cnc3c(Cl)ncnc32)O1 (centres undefined) has what growth?
RESULT: 95.9

QUERY: What value of measured growth is listed for "COc1cc(Nc2ncc3c(n2)-c2ccc(Cl)cc2C(c2c(F)cccc2OC)=NC3)ccc1C(=O)O" ?
RESULT: 63.2

QUERY: Fill in: growth of "C[C@]12O[C@H](C[C@]1(O)CO)n1c3ccccc3c3c4c(c5c6ccccc6n2c5c31)CNC4=O" is ___
RESULT: -68.8

QUERY: Can you look up the measured growth of "O=C(CNc1nnc(-c2ccc(Cl)cc2)o1)Nc1ccc(-c2nc3ccccc3s2)cc1" for me?
RESULT: 82.9

QUERY: Which growth value is on record for Cc1cccc(C)c1N1C(c2ccccc2)=NNC12C=CC(=O)c1c(O)cccc12 (centres undefined) ?
RESULT: 94.6

QUERY: // returns reported growth for input "Cc1cc(Nc2ncc(Cl)c(Nc3ccccc3S(=O)(=O)C(C)C)n2)c(OC(C)C)cc1C1CCNCC1"
RESULT: -64.8
